System: MDA-MB-231 breast cell adenocarcinoma
assay-info: Relative colony forming efficiency after antisense treatment (Table 13, FIG. 11, FIG. 12)
Type: cell-based, human
assay-setup: 0.2 μM antisense oligodeoxyribonucleotide phosphorothioate; MDA-MB-231 cells; averages of 2-8 determinations
Method: Colony forming efficiency was determined as previously reported [Huang and Wright, 1994]. The cells were cultured for 24 hours at 37° C. in growth medium with 10% fetal bovine serum. […] The oligonucleotides being tested were added to cell cultures in the presence of 2.5 μg of DOTMA/DOPE (Lipofectin; Life Technologies, Inc.) for four hours. […] Surviving cells were visualized by methylene blue staining, and colonies were scored. […] Results were analyzed as percent of surviving cells compared to control cells. […]
Strand notation (5' to 3'): a small letter for the sugar, then the base; units joined by * are phosphorothioate-linked, units joined directly phosphodiester-linked; [ ] holds rarer units or linkages, { } end groups; capitals alone tell only the bases. d = 2'-deoxy (DNA)
Below, each entry is listed alongside its reported Reduced relative colony forming efficiency, expressed as % inhibition, MDA-MB-231.
observation-type: Reduced relative colony forming efficiency, expressed as % inhibition, MDA-MB-231 (%)

- ordered-residues: "ATTAAAATCTGCGTTGAAGC (DNA, all phosphorothioate, methylation of C not given here) [AS-II-1700-20]"
  value-reported: 30.75
- ordered-residues: "GTAAGTCACAGCCAGCCAGG (DNA, all phosphorothioate, methylation of C not given here) [AS-II-1560-20]"
  value-reported: 46.15
- ordered-residues: "ACCCCTCACTCCAGCAGCCT (antisense dA*dC*dC*dC*dC*dT*dC*dA*dC*dT*dC*dC*dA*dG*dC*dA*dG*dC*dC*dT) [AS-II-110-20]"
  value-reported: 90.92
- ordered-residues: "TGCCTCCGACCCTTCCCATT (antisense dT*dG*dC*dC*dT*dC*dC*dG*dA*dC*dC*dC*dT*dT*dC*dC*dC*dA*dT*dT) [AS-II-14-20]"
  value-reported: 91.24
- ordered-residues: "AACCGGAAAAGAAAATGCCT (antisense; DNA, all phosphorothioate, methylation of C not given here) [AS-II-890-20]"
  value-reported: 88.2
- ordered-residues: "ATGGAAAAAAAAAATCAGCC (DNA, all phosphorothioate, methylation of C not given here) [AS-II-1390-20]"
  value-reported: 66.89
- ordered-residues: "GGCCCAGATCACCCCTAAAT (antisense; DNA, all phosphorothioate, methylation of C not given here) [AS-II-2128-20]"
  value-reported: 91.3
- ordered-residues: "TTCATGGTGTGGCTAGTTGG (DNA, all phosphorothioate, methylation of C not given here) [AS-II-1438-20]"
  value-reported: 69.06
- ordered-residues: "GAGAAATAAAATGAAACGGC (antisense; DNA, all phosphorothioate, methylation of C not given here) [AS-II-2164-20]"
  value-reported: 69.03
- ordered-residues: "CGGAGGGAGAGCATAGTGGA (dC*dG*dG*dA*dG*dG*dG*dA*dG*dA*dG*dC*dA*dT*dA*dG*dT*dG*dG*dA; antisense) [AS-II-189-20]"
  value-reported: 39.86
- ordered-residues: "GCACATCTTCAGTTCATTTA (DNA, all phosphorothioate, methylation of C not given here) [AS-II-1362-20]"
  value-reported: 70.22
- ordered-residues: "TGCCTCCGACCCTTCCCA (antisense dT*dG*dC*dC*dT*dC*dC*dG*dA*dC*dC*dC*dT*dT*dC*dC*dC*dA) [AS-II-16-18]"
  value-reported: 62.59

Cited source: patent US7405205B2
